From: patent US10947242B2

Experimental System: Human recombinant PDE10A (hPDE10A) (Homo sapiens, UniProt Q9Y233)
Construct: His tag (inferred from metal chelate purification); made in house; host or cells: Sf9 insect cells (baculovirus)
Sequence (Q9Y233 267-1055): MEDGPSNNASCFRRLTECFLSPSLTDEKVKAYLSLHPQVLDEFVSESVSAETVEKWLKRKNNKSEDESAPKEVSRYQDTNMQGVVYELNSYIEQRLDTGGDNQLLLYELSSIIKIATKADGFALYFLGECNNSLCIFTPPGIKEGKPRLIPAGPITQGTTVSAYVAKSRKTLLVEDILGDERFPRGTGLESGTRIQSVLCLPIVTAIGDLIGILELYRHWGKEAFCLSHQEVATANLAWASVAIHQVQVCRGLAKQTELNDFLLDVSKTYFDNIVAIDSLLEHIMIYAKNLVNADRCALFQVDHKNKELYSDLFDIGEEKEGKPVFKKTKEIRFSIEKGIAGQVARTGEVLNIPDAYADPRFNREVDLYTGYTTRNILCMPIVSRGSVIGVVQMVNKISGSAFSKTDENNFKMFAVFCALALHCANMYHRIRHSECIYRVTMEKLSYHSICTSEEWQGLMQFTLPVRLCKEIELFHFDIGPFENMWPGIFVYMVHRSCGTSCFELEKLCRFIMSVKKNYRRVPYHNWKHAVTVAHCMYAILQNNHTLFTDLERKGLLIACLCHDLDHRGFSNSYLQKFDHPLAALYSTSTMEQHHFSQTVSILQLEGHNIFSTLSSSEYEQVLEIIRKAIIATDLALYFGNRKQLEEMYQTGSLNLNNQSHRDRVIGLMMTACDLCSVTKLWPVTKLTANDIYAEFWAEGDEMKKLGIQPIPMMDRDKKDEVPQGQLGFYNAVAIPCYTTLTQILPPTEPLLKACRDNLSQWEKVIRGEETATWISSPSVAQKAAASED
Test Method Notes: In vitro assay PDE10A, human clone (SPA, 3H-cAMP hydrolysis)
Assay type: biochemical
Measurement Conditions: human clone (h), default; read-out: hPDE10A2 pIC50 (converted)
Reported Property: IC50 (µM)

Some molecules with recorded IC50:
C[C@@H]1CCN(C(=O)c2ccc(F)c(C3CC3)c2)C[C@H]1c1cc(C(F)F)nc2ncnn12 [Compound 135]    0.191
Cc1cc([C@@H]2CN(C(=O)c3ccnc(Cl)c3)CC[C@H]2C)n2ncnc2n1 [Compound 15]    0.0724
Cc1ncoc1C(=O)N1CC[C@@H](C)[C@H](c2cc(C(F)F)nc3ncnn23)C1 [Compound 156]    2
Cc1cc(C(=O)N2CC[C@@H](C)[C@H](c3cc(C)nc4ncnn34)C2)cc(C2CC2)n1 [Compound 23]    0.00708
C[C@@H]1CCN(C(=O)c2ccc(O)nn2)C[C@H]1c1cc(C(F)F)nc2ncnn12 [Compound 236]    7.76
C[C@@H]1CCN(C(=O)c2ccc(F)nc2)C[C@H]1c1cc(C(F)F)nc2ncnn12 [Compound 254]    3.8

(a) Cc1nocc1C(=O)N1CC[C@@H](C)[C@H](c2cc(C(F)F)nc3ncnn23)C1 [Compound 184]
(b) C[C@@H]1CCN(C(=O)c2ccc(F)c(C(F)(F)F)c2)C[C@H]1c1cc(C(F)F)nc2ncnn12 [Compound 194]
Ask | Parameter metric = IC50. Return the lower-valued option from a and b . Your answer should be the label attached to the chosen record.
Reply | b
(b: 0.263 µM, a: 2.75 µM)
